Reference source for all entries: PubChem BioAssay (EPA / NIEHS)

Assay: ACEA_ER_80hr: ACEA Biosciences xCELLigence Real-Time Cell Analysis on Estrogen Receptor Agonism for Proliferation (AID 2282667)
Conditions: T47D proliferation, impedance (xCELLigence), 80 h
Results filed as inconclusive are left out. Active and inactive are the calls of the source. The calls were made as follows: active = hit-call score of the fitted dose curve at least 0.9, where 1 is the maximum; inconclusive = response in the unintended direction; inactive = score below 0.9.
Respond using exactly one of the listed classes: TRUE for active, FALSE for inactive

> print(dat)
                                   compound  label
1  CCCCCCC(C)OC(=O)CCCCC(=O)OC(C)CCCCCC (stereo not drawn)  FALSE
2                 O=C(O)C(F)(F)C(F)(F)C(F)F  FALSE
3  OCC(F)(F)C(F)(F)C(F)(F)C(F)(F)C(F)(F)C(F)(F)F  FALSE
4  FC(F)(F)C(F)(F)C(F)(F)C(F)(F)C(F)(F)C(F)(F)C(F)(F)I  FALSE
5  CCN(Cc1cccc(S(=O)(=O)O)c1)c1ccc(C(=C2C=CC(=[N+](CC)Cc3cccc(S(=O)(=O)O)c3)C=C2)c2ccc(O)cc2S(=O)(=O)[O-])cc1  FALSE

We next turn to a different compound, shown below.
[ask] Assay result, entry O=C(O)C(F)(F)C(F)(F)C(F)(F)C(F)(F)C(F)(F)C(F)(F)C(F)(F)C(F)(F)C(F)(F)C(F)F — outcome?
[reply] TRUE

====

Assay: ATG_CRE_CIS: Attagene CIS-FACTORIAL HepG2 Assay for human cAMP Responsive Element (CRE) binding protein 3 (AID 2282926)
Conditions: HepG2 CRE cis-reporter, Attagene multiplexed mRNA; actives raise or lower the signal
Calls of active or inactive are those of the source. The calls were made as follows: active = hit-call score of the fitted dose curve at least 0.9, where 1 is the maximum; inactive = score below 0.9.
readout-name: outcome

Look over these answered cases.
> print(dat)
                                   compound    result
1              CCc1c(Br)c(Br)c(Br)c(Br)c1Br  inactive
2  COC(=O)C1CCC(C(=O)OC)CC1 (stereo unspecified)  inactive
3  OCC(F)(F)C(F)(F)C(F)(F)C(F)(F)C(F)(F)C(F)F  inactive
4          FC(F)(F)C(F)(F)C(F)(F)C(F)(F)CCI  inactive
5                     O=C(O)C(F)(F)C(F)(F)F  inactive

Next up:
[ask] Note outcome for the compound shown: Cc1ccc(S(=O)(=O)OCC(F)(F)C(F)(F)C(F)(F)C(F)(F)C(F)(F)C(F)F)cc1
[reply] inactive

====

Test: ATG_CMV_CIS: Attagene CIS-FACTORIAL HepG2 Assay for human CMV (Internal Marker) (AID 2282928);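 also: endpoint acts as a background internal control marker rather than a target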
Settings: HepG2 CMV promoter reporter, transcription factor profiling; actives raise or lower the signal
The source made the active and inactive calls. The calls were made as follows: active = hit-call score of the fitted dose curve at least 0.9, where 1 is the maximum; inactive = score below 0.9.
Pick one: 1 (active), -1 (inactive)

> print(dat)
                               given.smiles  label
1                                  C1COCCN1     -1
2  FC(F)(F)C(F)(F)C(F)(F)C(F)(F)C(F)(F)C(F)(F)C(F)(F)C(F)(F)CCS     -1
3       CCCCCCCCCCCCCCCC[N+](C)(C)Cc1ccccc1      1
4  O=C(O)C(F)(F)C(F)(F)C(F)(F)C(F)(F)C(F)(F)C(F)(F)C(F)(F)C(F)(F)Cl     -1
5        CCCCCCCOC(=O)c1ccccc1C(=O)OCCCCCCC     -1

[ask] Name the outcome recorded for CN(C)Cc1ccccc1O in the assay.
[reply] -1

[ask] Can you look up the reported call for O=P(O)(O)OCCC(F)(F)C(F)(F)C(F)(F)C(F)(F)C(F)(F)C(F)(F)F for me?
[reply] -1

[ask] Record request — test call for CCCCNc1ccccc1
[reply] -1

[ask] For FC(F)(F)C(F)(F)C(F)(F)C(F)(F)C(F)(F)C(F)(F)C(F)(F)C(F)(F)F , which call appears in the assay record?
[reply] -1

[ask] Which outcome was assigned to CC(C)c1ccccc1N in this test?
[reply] -1

[ask] So what was the verdict on CCc1c(Br)c(Br)c(Br)c(Br)c1Br in this test?
[reply] -1

[ask] State the result this test recorded for C=CC/C=C/C/C=C/C/C=C/C .
[reply] -1

[ask] Outcome logged for FC(F)(F)C(F)(F)C(F)(F)C(F)(F)C(F)(F)CCI in this assay:
[reply] 1
